- System: HOP-18 NSCLC
- experimental protocol: NCI tumour cell line growth inhibition, 48 h
Each record here notes measured TGI.

{"compound": "O=C(NCCCN1CCN(CCCNC(=O)c2cnc3ccccc3n2)CC1)c1cnc2ccccc2n1", "tested on": "HOP-18 NSCLC", "TGI": "> 100 µM"}
{"compound": "Cc1ccc2nc3c(C(=O)NCCN(C)C)cccc3cc2c1", "tested on": "HOP-18 NSCLC", "TGI": "5.76 µM"}
{"compound": "COC(=O)CCC(NC(=S)N/N=C(\\C)c1ccccn1)C(=O)OC (stereo not drawn)", "tested on": "HOP-18 NSCLC", "TGI": "> 100 µM"}
{"compound": "O=C(CC(=O)N1N=C(n2ccc3ccccc32)CC1c1ccccc1)Nc1cccc(Cl)c1 (stereo not drawn)", "tested on": "HOP-18 NSCLC", "TGI": "> 100 µM"}
{"compound": "O=C(CCc1nnc2s/c(=C\\c3ccccc3)c(=O)n12)Nc1cc(Cl)ccc1Cl", "tested on": "HOP-18 NSCLC", "TGI": "> 100 µM"}
{"compound": "C=C1C(=O)OC2CCCCC3OC3C12 (stereo not drawn)", "tested on": "HOP-18 NSCLC", "TGI": "23.3 µM"}
{"compound": "C#CCNC(=O)CCC(N)C(=O)O (stereo not drawn)", "tested on": "HOP-18 NSCLC", "TGI": "> 100 µM"}
{"compound": "COc1ccc(/C=C/C(=O)c2sc(N)nc2C)cc1", "tested on": "HOP-18 NSCLC", "TGI": "> 100 µM"}

====

- System: KM20L2 colon
- experimental protocol: NCI tumour cell line growth inhibition, 48 h

{"molecule": "COc1ccc(/C=C/C(=O)c2sc(N)nc2C)cc1", "TGI": "> 100 µM"}
{"molecule": "CC(C)c1cc(C(C)C)c(S(=O)(=O)NN)c(C(C)C)c1", "TGI": "> 100 µM"}
{"molecule": "O=C(CC(=O)N1N=C(n2ccc3ccccc32)CC1c1ccccc1)Nc1cccc(Cl)c1 (stereo not drawn)", "TGI": "> 100 µM"}
{"molecule": "COC1/C=C\\C=C(/C)C(=O)NC2=CC(=O)C=C(C2=O)C(OC)C(C)CC(OC)C(OC)C(C)/C=C(/C)C1OC(N)=O (stereo not drawn)", "TGI": "17.2 µM"}
{"molecule": "COC(=O)CCC(NC(=S)N/N=C(\\C)c1ccccn1)C(=O)OC (stereo not drawn)", "TGI": "> 100 µM"}
{"molecule": "CC(/C=C/c1ncccc1OCCCCCC(=O)O)=N\\NC1=NCCN1", "TGI": "> 100 µM"}
{"molecule": "COCCO", "TGI": "> 100 µM"}
{"molecule": "NC(=S)N/N=C(/CC(=O)c1ccc([N+](=O)[O-])cc1)C(=O)Nc1ncc([N+](=O)[O-])s1", "TGI": "> 100 µM"}
{"molecule": "C=CCC(C(=O)OC)C1(C(=O)OC)c2[nH]c3ccccc3c2CCN1Cc1ccccc1 (stereo not drawn)", "TGI": "> 100 µM"}
{"molecule": "C=CCn1c2ccccc2c2c(C)c3cnccc3c(C)c21", "TGI": "112 µM"}
{"molecule": "CSCCC(NC(=O)C(Cc1ccccc1)NC(=O)CNC(=O)CNC(=O)C(N)Cc1ccc(O)cc1)C(=O)O (stereo not drawn)", "TGI": "> 29 µM"}
{"molecule": "O=c1[nH]c(=S)[nH]c2c1sc(=S)n2-c1ccccc1", "TGI": "> 100 µM"}
{"molecule": "COC(=O)C(C(=O)C(=O)Nc1cccc(O)c1)c1nc2ccc(Cl)cc2[nH]c1=O (stereo not drawn)", "TGI": "> 100 µM"}
{"molecule": "COc1cc2cc3c4c(cc(OC)c(OC)c4c2cc1OC)CCN3C(=O)CCCC(=O)O", "TGI": "> 100 µM"}
{"molecule": "C#CCNC(=O)CCC(N)C(=O)O (stereo not drawn)", "TGI": "> 100 µM"}
{"molecule": "CCOC(=O)CC(=O)ON(C)C(=O)Cc1ccccc1", "TGI": "> 100 µM"}
{"molecule": "O=C(CCc1nnc2s/c(=C\\c3ccccc3)c(=O)n12)Nc1cc(Cl)ccc1Cl", "TGI": "> 100 µM"}
{"molecule": "O=C1C=C2S[C@H]3C[C@]2(C=C1Br)c1c(c(O)c2c4c1=NCCC=4C=N2)N3", "TGI": "1.93 µM"}

====

Let's go through some GI50 measurements on CAKI-1 renal together.
experimental endpoint: GI50

{"compound": "COc1ccc2c(c1)C(=O)c1c-2n(CCCN=[N+]=[N-])c(=O)c2ccccc12", "experimental endpoint": "GI50", "assay value": "49.7 µM"}
{"compound": "COC(=O)[C@]12CC[C@@H](C)[C@H](C)[C@@H]1C1=CC[C@@H]3[C@@]4(C)C[C@@H](OC(=O)c5ccco5)[C@H](O)[C@@](C)(CO)[C@@H]4[C@H](O)C[C@@]3(C)[C@]1(C)CC2", "experimental endpoint": "GI50", "assay value": "2.99 µM"}
{"compound": "N#Cc1ccc(Oc2nccc(-c3c(-c4ccc(F)cc4)ncn3C3CCNCC3)n2)cc1", "experimental endpoint": "GI50", "assay value": "> 25 µM"}
{"compound": "CSc1ccc2c(c1)c(CCN)c(C)n2Cc1ccc(Cl)c(Cl)c1", "experimental endpoint": "GI50", "assay value": "1.82 µM"}
{"compound": "O=C(N[C@H](c1ccc(Cl)c(Cl)c1)C1CNC1)c1ccc2cnccc2c1", "experimental endpoint": "GI50", "assay value": "1.84 µM"}
{"compound": "Cc1cccc(CN(C)c2ccc(CO)c(Cl)c2)c1", "experimental endpoint": "GI50", "assay value": "3.71 µM"}
{"compound": "CCCNc1nc(N(C)O)nc(N(C)O)n1", "experimental endpoint": "GI50", "assay value": "3.15 µM"}
{"compound": "CSC1=Nc2c(c(C)c(-c3ccccc3)n2COC(CO)CO)C2=NC(=O)C(C)N12 (centres undefined)", "experimental endpoint": "GI50", "assay value": "> 100 µM"}
{"compound": "CCCCCCN(CCCCCC)CCCNc1nccc2ccccc12", "experimental endpoint": "GI50", "assay value": "1.92 µM"}

====

Each record here notes measured TGI.
- Tested on: DU-145 prostate
- experimental protocol: NCI tumour cell line growth inhibition, 48 h

{"molecule": "CSC1=Nc2c(c(C)c(-c3ccccc3)n2COC(CO)CO)C2=NC(=O)C(C)N12 (stereo not given)", "TGI": "> 100 µM"}
{"molecule": "Clc1ccc(-c2nc3c(-c4ccc(Cl)cc4)nc(-c4ccccc4)cn3c2-c2ccc(Cl)cc2)cc1", "TGI": "> 50 µM"}
{"molecule": "N#CS/C(C(Cl)=C(Cl)Cl)=C(/Cl)[N+](=O)[O-]", "TGI": "27.8 µM"}
{"molecule": "COCCc1c(C)c(C#N)c2n(C)c3ccccc3n2c1=O", "TGI": "> 10 µM"}
{"molecule": "Cc1nn2c(N)cc(=O)nc2nc1/C=C/c1ccc(N(C)C)cc1", "TGI": "> 100 µM"}
{"molecule": "Cc1cccc(CN(C)c2ccc(CO)c(Cl)c2)c1", "TGI": "> 100 µM"}
{"molecule": "CC(=O)OCC1C(C(C)OC(C)=O)CCC2C1CCC1(C)C(OC(C)=O)CCC21 (stereo not given)", "TGI": "> 100 µM"}
{"molecule": "CCN(CC)CC(O)c1ccc2ccc3ccccc3c2c1 (stereo not given)", "TGI": "33 µM"}
{"molecule": "CCN1CCC[C@H]1c1cc(O)c2c(c1OC)C[C@H]1C[C@H]3[C@H](N)C(=O)C(C(N)=O)=C(O)[C@@]3(O)C(=O)C1=C2O", "TGI": "2.16 µM"}
{"molecule": "CC1=NN(c2nc(N)nc(CS(C)(=O)=O)n2)C(C)(C)C1", "TGI": "> 100 µM"}

====

Let's go through some GI50 measurements on UACC-257 melanoma together.
experimental endpoint: GI50

{"compound": "CC(C)=CC/C=C(/C)[C@H]1CC[C@]2(C)[C@@H]1CC[C@@H]1[C@@]3(C)CCC(=O)NC(C)(C)[C@@H]3CC[C@]12C", "tested on": "UACC-257 melanoma", "assay value": "31.7 µM"}
{"compound": "COc1ccc2c(c1)C(=O)c1c-2n(CCCN=[N+]=[N-])c(=O)c2ccccc12", "tested on": "UACC-257 melanoma", "assay value": "> 100 µM"}
{"compound": "O=C(N[C@H](c1ccc(Cl)c(Cl)c1)C1CNC1)c1ccc2cnccc2c1", "tested on": "UACC-257 melanoma", "assay value": "5.18 µM"}
{"compound": "CSc1ccc2c(c1)c(CCN)c(C)n2Cc1ccc(Cl)c(Cl)c1", "tested on": "UACC-257 melanoma", "assay value": "2.03 µM"}
{"compound": "CSC1=Nc2c(c(C)c(-c3ccccc3)n2COC(CO)CO)C2=NC(=O)C(C)N12 (centres undefined)", "tested on": "UACC-257 melanoma", "assay value": "> 100 µM"}
{"compound": "Cc1ccc(/C=C(\\C#N)n2nnc3cc(Cl)c(Cl)cc32)cc1", "tested on": "UACC-257 melanoma", "assay value": "2.95 µM"}
{"compound": "COc1cc2c(cc1OC)C(CCc1ccc(Cl)cc1)N(C)CC2 (centres undefined)", "tested on": "UACC-257 melanoma", "assay value": "27.2 µM"}
{"compound": "CCCc1cc(=O)oc2c(C(=O)CC(C)C)c(O)c(CC=C(C)C)c(O)c12", "tested on": "UACC-257 melanoma", "assay value": "5.89 µM"}
{"compound": "C=C1CC[C@@H]2C(C)(C)[C@@H](O)CC[C@@]2(C)[C@@H]1COc1ccc2ccc(=O)oc2c1", "tested on": "UACC-257 melanoma", "assay value": "14.1 µM"}
{"compound": "CC/C(=N\\Nc1nc2ccccc2n1C)c1ccccn1", "tested on": "UACC-257 melanoma", "assay value": "0.0735 µM"}
{"compound": "COC1=C(OC)C(=O)C(/C=C(\\C)C(=O)O)=C(C)C1=O", "tested on": "UACC-257 melanoma", "assay value": "> 100 µM"}
{"compound": "COc1cc2c(cc1OCCCCNC(=O)c1cc3ccccc3[nH]1)N=CC1CCCN1C2=O (centres undefined)", "tested on": "UACC-257 melanoma", "assay value": "17.4 µM"}
{"compound": "O=C(Nc1cccc(Cl)c1)Nc1cccc(Cl)c1", "tested on": "UACC-257 melanoma", "assay value": "> 100 µM"}
{"compound": "O=C(CCCn1c2c(sc3ncccc32)c(=O)n2nnc(-c3ccccc3)c12)NCCc1cnc[nH]1", "tested on": "UACC-257 melanoma", "assay value": "18.3 µM"}
{"compound": "Fc1ccc(-c2nc(-c3nc4ccc(Cl)cc4[nH]3)cc3c2[nH]c2ccccc23)cc1", "tested on": "UACC-257 melanoma", "assay value": "2.4 µM"}
{"compound": "COc1cc(CNC(=O)/C=C/C=C/c2ccc3c(c2)OCO3)ccc1OCc1cn(-c2ccc(Cl)c(Cl)c2)nn1", "tested on": "UACC-257 melanoma", "assay value": "1.8 µM"}
{"compound": "O=C1NC(=NCC(CO)c2ccccc2)S/C1=C\\c1ccc2ncccc2c1 (centres undefined)", "tested on": "UACC-257 melanoma", "assay value": "> 25 µM"}
{"compound": "O=C(Oc1cccnc1)c1ccccc1Nc1ccnc(C(F)(F)F)c1", "tested on": "UACC-257 melanoma", "assay value": "35.7 µM"}
{"compound": "CCN1CCN(CCOc2ccc(CNc3ccc4nc(CCC5CCCCC5)[nH]c4c3)cc2)CC1", "tested on": "UACC-257 melanoma", "assay value": "1.85 µM"}

Reference source: PubChem BioAssay (NCI)
